# Tested on: COLO 205 colon
# method notes: NCI tumour cell line growth inhibition, 48 h
Please respond with reported TGI for every item in the list.

# input Check the records and state TGI for Clc1ccc(-c2cc3nc4ccccc4nc3o2)cc1
# output > 100 µM

# input Check the records and state TGI for CCCC1=C(CC)C(C(=O)Nc2c(C)cccc2C)=NC(S)N1 (stereo unspecified)
# output > 100 µM

# input Check the records and state TGI for C(/C=C/Nc1ccc(Oc2ccccc2)cc1)=Nc1ccc(Oc2ccccc2)cc1
# output 43.6 µM

# input Check the records and state TGI for O=c1cc(N2CCCC2)[nH]c(=O)n1-c1cccc(Cl)c1
# output > 100 µM

# input Check the records and state TGI for N#Cc1[nH]c(=O)n(-c2ccccc2)c1N
# output > 10 µM

# input Check the records and state TGI for NNC(=O)c1c(SCc2ccccc2)nc2c3ccccc3ccn12
# output > 100 µM

# input Check the records and state TGI for CSc1nnc(SC)nn1
# output 32.7 µM

# input Check the records and state TGI for Cc1cc(NS(=O)(=O)c2ccc(Nc3c4ccccc4nc4c(C(=O)N5CCN(CCO)CC5)cccc34)cc2)no1
# output > 100 µM

# input Check the records and state TGI for CC(=O)[C@@H](C)C(=O)N1C(=O)OC[C@@]12[C@@H]1CC[C@@H](C1)C2(C)C
# output > 100 µM

# input Check the records and state TGI for O=C(Nc1ccccc1-c1nc2ccccc2[nH]c1=O)c1ccccc1
# output > 100 µM

# input Check the records and state TGI for CC(=O)O[C@H]1CCC2[C@@H]3CC[C@]4(C)CC(=O)C=C[C@]4(C)C3CC[C@@]21C (stereo partly specified)
# output 31.3 µM
